Recorded Non-resistant (number of plants) values for a group of compounds are listed next.
- Tested on: At cytoplasmic ALT-2-01 T1 plants
- method: Herbicide tolerance of Arabidopsis thaliana T1 plants, sprayed, resistance classes counted 14 days after spraying
- Type: in vivo
- condition.summary: sprayed at 1-fold field concentration
metric: Non-resistant (number of plants)

compound | measured.value
COC(=O)c1ccc(CNS(C)(=O)=O)cc1S(=O)(=O)NC(=O)Nc1nc(OC)cc(OC)n1 [mesosulfuron] | 32
COC(=O)c1ccc(I)cc1S(=O)(=O)NC(=O)Nc1nc(C)nc(OC)n1 [iodosulfuron-methyl] | 30
Cc1cc(C)nc(NC(=O)NS(=O)(=O)c2ccccc2C(=O)OC2COC2)n1 [oxasulfuron] | 30
COC(=O)c1ccccc1S(=O)(=O)NC(=O)N(C)c1nc(C)nc(OC)n1 [tribenuron-methyl] | 3

Measured values drawn from patent US20190029252A1 for this set.
